- testedSystem: T1, human PSMA expressed with an N-terminal hexahistidine tag (6h.hPSMA, R&D) (human, UniProt Q04609 44-750)
- T1 construct: Bought soluble protein; also called soluble human PSMA; human PSMA protein
- T1 sequence (Q04609 other isoform, or with tags, fused parts or gaps limits assumed): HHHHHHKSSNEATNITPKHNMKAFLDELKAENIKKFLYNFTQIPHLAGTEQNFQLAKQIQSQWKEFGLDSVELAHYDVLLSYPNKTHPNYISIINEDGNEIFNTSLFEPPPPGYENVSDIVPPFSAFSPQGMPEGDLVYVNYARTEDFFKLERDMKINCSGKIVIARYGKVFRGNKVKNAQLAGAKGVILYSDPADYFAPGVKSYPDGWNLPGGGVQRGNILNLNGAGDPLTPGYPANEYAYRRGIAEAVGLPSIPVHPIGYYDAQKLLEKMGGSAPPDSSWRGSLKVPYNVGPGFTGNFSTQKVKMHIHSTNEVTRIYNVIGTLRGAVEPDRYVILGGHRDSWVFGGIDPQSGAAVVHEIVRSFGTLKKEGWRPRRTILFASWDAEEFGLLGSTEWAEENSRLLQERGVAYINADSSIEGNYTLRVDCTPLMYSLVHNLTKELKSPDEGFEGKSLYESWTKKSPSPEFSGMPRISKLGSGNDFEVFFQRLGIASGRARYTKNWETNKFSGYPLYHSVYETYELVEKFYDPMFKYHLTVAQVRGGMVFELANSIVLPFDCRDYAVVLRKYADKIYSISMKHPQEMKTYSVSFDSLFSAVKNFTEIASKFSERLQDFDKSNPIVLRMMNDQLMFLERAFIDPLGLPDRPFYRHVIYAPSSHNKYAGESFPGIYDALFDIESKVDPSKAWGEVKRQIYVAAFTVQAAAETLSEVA
- measurementDescription: SPR Biacore T-200, 37 C, antibody-capture (anti-human Fc), 6h.hPSMA as analyte
I'd be grateful if you could share measured kon for these entries.
One number for each entry, in M⁻¹ s⁻¹.

binder	kon [M⁻¹ s⁻¹]
H1H11797P2 (antibody, human IgG1, V domains shown, human IgG1) VH: QVQLVESGGGVVQPGRSLRLSCAASGFSFSGYGMHWVRQAPGKGLEWVAVTWYDGSNKYYADSVKGRFTISRDNSKNTLYLQMNSLRAEDTAVYYCARDGNWGGPYWYFDLWGRGTLVTVSS VL: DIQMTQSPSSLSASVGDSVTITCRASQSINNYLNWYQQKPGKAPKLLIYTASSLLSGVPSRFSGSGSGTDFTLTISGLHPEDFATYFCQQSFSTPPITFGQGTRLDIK	168000

Now look at this entry.
# kon lookup, item H1H11808P2 (antibody, human IgG1, V domains shown, human IgG1) VH: QVQLVESGGGVVQPGRSLRLSCAASGFPFNSYGMHWVRQAPGKGLEWVAVISYDGSNRYYADSVKGRFTISRDNSKYTLDLHVSSLTTDDTAVYYCARDRRYGKWEQLYPDYLGQGTLVTVSS VL: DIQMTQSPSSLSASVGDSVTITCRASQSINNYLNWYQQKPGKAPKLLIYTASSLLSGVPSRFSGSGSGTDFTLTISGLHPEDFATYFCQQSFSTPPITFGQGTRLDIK
178000
